The values you see were collected from ChEMBL document CHEMBL1857833.

# Assay Procedure: DNDI: Cytotoxicity against L929 mouse fibroblasts, 72 hour.
# Format: toxicity, cell-based
# Settings: mouse, L929 mouse fibroblasts
This listing pairs compounds with measured IC50 at 72 h.

Compound	IC50 at 72 h
CCCCc1ccc(-c2nc(CNCCCN3CCOCC3)co2)cc1	2.08 µg/mL
CCCCCOc1ccc(-c2nc(CNC3CC(C)CC(C)(C)C3)co2)cc1 (stereo unspecified)	< 3.13 µg/mL
c1ccc(-c2nc(C(NCc3ccco3)C3CC3)oc2N2CCOCC2)cc1 (stereo unspecified)	> 10 µg/mL
COc1cccc(OC)c1CNCc1coc(-c2ccc(OC(C)C)cc2)n1	4.15 µg/mL
CC1CCC(N/C(=N\O)c2cccnc2Oc2ccccc2Cl)CC1 (stereo unspecified)	> 10 µg/mL
CCCCCCC/C(O)=C1\C(=O)NC(CC(C)C)C1=O (stereo unspecified)	> 10 µg/mL
CCCCCC(C)NCc1coc(-c2ccc(C)c(OC)c2)n1 (stereo unspecified)	5.27 µg/mL
CCCCCC(C)NCc1coc(-c2ccccc2C#N)n1 (stereo unspecified)	> 10 µg/mL
c1ccc(Cc2nc(C(NCc3ccco3)C3CC3)oc2N2CCOCC2)cc1 (stereo unspecified)	> 10 µg/mL
C(=N\Oc1ccccc1)/c1ccccc1-c1ccccc1	> 10 µg/mL
CCC(C)C(NCc1ccc(OC)c(OC)c1)c1nc(-c2ccccc2)c(N2CCCCC2)o1 (stereo unspecified)	> 10 µg/mL

###

// reported half-life at 10 µM per item
# Assay Procedure: DNDI: half life in human liver microsomes at a concentration of 10uM
# Assay type: ADME, Microsome
Property Measured: half-life at 10 µM (min)

Molecule	Property Measured	Test Result
O/N=C(/NC1CCCCC1)c1cccnc1Oc1ccccc1F	half-life at 10 µM	185
COc1ccccc1/C(=N/O)NC1CCCCC1	half-life at 10 µM	128
CCCCCC(C)NCc1coc(-c2ccc(OCCCC)cc2)n1 (stereo unspecified)	half-life at 10 µM	104
CCCCCC(C)NCc1coc(-c2ccc(OC)cc2)n1 (stereo unspecified)	half-life at 10 µM	66
CCOc1ccc(-c2nc(CNC3C[C@@H]4C[C@H]([C@H]3C)C4(C)C)co2)cc1 (stereo partly specified)	half-life at 10 µM	174
CCCCCC(C)NCc1coc(-c2ccc(CCCC)cc2)n1 (stereo unspecified)	half-life at 10 µM	97
CCCCCC(C)NCc1coc(-c2ccc(OCC)cc2)n1 (stereo unspecified)	half-life at 10 µM	88
O/N=C(\NC1CCCCC1)c1ccccc1Oc1ccccc1	half-life at 10 µM	64
CCc1ccccc1Oc1ncccc1/C(=N\O)NC1CCCCC1	half-life at 10 µM	106
O/N=C(/NC1CCCCC1)c1cccnc1Oc1ccccc1	half-life at 10 µM	314
COc1cccc(/C(=N/O)NC2CCCCC2)c1	half-life at 10 µM	219
O/N=C(\NCC1CC1)c1ccccc1-c1ccccc1	half-life at 10 µM	633
O/N=C(\NC1CCCCC1)c1ccccc1-c1ccccc1	half-life at 10 µM	557
CCCCCC(C)NCc1coc(-c2cccc(OC)c2)n1 (stereo unspecified)	half-life at 10 µM	127
O/N=C(\NC1CCCCC1)c1ccccc1	half-life at 10 µM	289
O/N=C(\NC1CCCC1)c1ccccc1-c1ccccc1	half-life at 10 µM	260
CCCCCC(C)NCc1coc(-c2ccc(OC(C)C)cc2)n1 (stereo unspecified)	half-life at 10 µM	78
CCCCCC(C)NCc1ccc(-c2ccccc2)cc1 (stereo unspecified)	half-life at 10 µM	114
COc1cc(C)ccc1Oc1ncccc1/C(=N/O)NC1CCCCC1	half-life at 10 µM	154
CCCCCC(C)NCc1coc(-c2ccc(-c3ccccc3)cc2)n1 (stereo unspecified)	half-life at 10 µM	4770
COc1ccc(/C(=N/O)NC2CCCCC2)cc1	half-life at 10 µM	76

###

# Subject Of Test: MDR1 (ABCB1) (Homo sapiens, UniProt P08183)
# Sequence (P08183 whole entry): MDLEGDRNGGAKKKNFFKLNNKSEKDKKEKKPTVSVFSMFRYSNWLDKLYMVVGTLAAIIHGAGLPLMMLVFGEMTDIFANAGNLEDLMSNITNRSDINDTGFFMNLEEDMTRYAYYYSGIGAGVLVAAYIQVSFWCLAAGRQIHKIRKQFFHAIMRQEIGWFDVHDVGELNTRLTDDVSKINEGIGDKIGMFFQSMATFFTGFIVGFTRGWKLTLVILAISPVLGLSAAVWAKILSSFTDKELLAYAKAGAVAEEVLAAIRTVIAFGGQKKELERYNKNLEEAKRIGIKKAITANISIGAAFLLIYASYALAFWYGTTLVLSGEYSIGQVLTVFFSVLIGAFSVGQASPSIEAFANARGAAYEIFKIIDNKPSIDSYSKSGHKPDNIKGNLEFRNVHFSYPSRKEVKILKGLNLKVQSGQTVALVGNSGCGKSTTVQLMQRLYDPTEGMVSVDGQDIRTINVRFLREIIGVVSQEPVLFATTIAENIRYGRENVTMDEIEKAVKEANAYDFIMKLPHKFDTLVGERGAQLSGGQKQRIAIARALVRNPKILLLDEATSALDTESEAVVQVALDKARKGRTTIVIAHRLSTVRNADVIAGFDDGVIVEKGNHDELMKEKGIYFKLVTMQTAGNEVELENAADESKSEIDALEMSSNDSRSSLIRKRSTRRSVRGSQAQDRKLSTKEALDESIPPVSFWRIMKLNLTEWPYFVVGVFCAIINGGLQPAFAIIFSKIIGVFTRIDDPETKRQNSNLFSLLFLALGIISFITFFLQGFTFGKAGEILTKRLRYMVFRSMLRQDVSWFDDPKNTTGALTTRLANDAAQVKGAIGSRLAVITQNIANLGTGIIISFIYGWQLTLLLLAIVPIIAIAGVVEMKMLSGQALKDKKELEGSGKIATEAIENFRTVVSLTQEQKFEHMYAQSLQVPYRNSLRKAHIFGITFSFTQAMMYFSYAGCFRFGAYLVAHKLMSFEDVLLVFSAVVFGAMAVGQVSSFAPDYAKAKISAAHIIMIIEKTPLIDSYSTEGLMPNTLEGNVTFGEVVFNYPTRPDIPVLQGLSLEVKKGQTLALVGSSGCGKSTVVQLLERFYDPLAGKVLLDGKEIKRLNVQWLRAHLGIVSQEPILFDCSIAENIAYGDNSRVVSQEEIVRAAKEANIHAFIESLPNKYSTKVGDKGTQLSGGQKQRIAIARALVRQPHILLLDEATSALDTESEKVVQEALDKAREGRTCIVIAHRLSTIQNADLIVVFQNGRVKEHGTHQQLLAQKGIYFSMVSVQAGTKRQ
# Assay Procedure: DNDI: % of compound recovered from membrane of apical to basolateral permeability assay in MDCK cells transfected with human MDR1 after 60 mins at a concentration of 3uM
# Assay type: ADME, cell-based, Canis lupus familiaris
# Settings: dog, read-out: Mem Rec
Property Measured: recovery at 1 h, 3 µM

Smiles Data	Subject Of Test	Property Measured	Test Result
CC(C)(C)c1cc(N2CCNCC2)n2nc(-c3ccc(F)cc3)cc2n1	MDR1 (ABCB1) (Homo sapiens, UniProt P08183)	recovery at 1 h, 3 µM	88.4%

###

# Assay Procedure: in vitro
# Settings: mouse, liver microsomes, t (1 / 2)
# Description: DNDI: half life in mouse liver microsomes at a concentration of 1uM
# half-life at 1 µM annotations

Molecule	Reading Unit	half-life at 1 µM
O/N=C(\NC1CCCCC1)c1ccccc1-c1ccccc1	h	0.117
CC(C)(C)CNCc1coc(-c2ccc(OCC(C)(C)C)cc2)n1	h	4.45
CCc1ccc(Oc2ncccc2/C(=N\O)NC2CCCC[C@H]2N)cc1 (stereo partly specified)	h	5.88
CCCCCC(C)NCc1coc(-c2ccc(OCc3ccccc3)cc2)n1 (stereo unspecified)	h	1.62
CCc1cccc(N/C(=N/O)c2ccc(OC)cc2)c1	h	0.0333
CCCCOc1ccc(-c2nc(CNC3CC(C)CC(C)(C)C3)co2)cc1 (stereo unspecified)	h	2.33

###

# Assay Procedure: in vitro
# Settings: human, microsomes
# Description: DNDI: half life in human liver microsomes at a concentration of 1uM
Property Measured: half-life at 1 µM

Smiles Data	Property Measured	Test Result
O/N=C(\NC1CCCCC1)c1cccnc1	half-life at 1 µM	4.62 h

###

# Subject Of Test: MDR1 (ABCB1) (Homo sapiens, UniProt P08183)
# Assay Procedure: DNDI: Apparent permeability from apical to basolateral side of the MDCK cell transfected with human MDR1after 60 mins at a concentration of 3uM
# Assay type: ADME, cell-based, Canis lupus familiaris
# Settings: dog, MDCK-MDR1

Smiles Data	Reading Unit	Papp A→B at 1 h, 3 µM
CC(C)(C)c1cc(N2CCNCC2)n2nc(-c3ccc(F)cc3)cc2n1	×10⁻⁶ cm/s	10.3
Fc1cccc(-c2cc3nc(-c4ccccc4)cc(NCCCN4CCOCC4)n3n2)c1	×10⁻⁶ cm/s	3.26
Cc1cc(NCCCn2ccnc2)n2nc(-c3cccc(F)c3)cc2n1	×10⁻⁶ cm/s	30.4
Cc1cc(NCCN(C)C)n2nc(-c3cccc(F)c3)cc2n1	×10⁻⁶ cm/s	46.6
Cc1cc(N2CCNCC2)n2nc(-c3cccc(F)c3)cc2n1	×10⁻⁶ cm/s	45.2
Cc1cc(NCCCN2CCOCC2)n2nc(-c3cccc(F)c3)cc2n1	×10⁻⁶ cm/s	36.1
CN(C)CCNc1cc(-c2ccccc2)nc2cc(-c3ccc(F)cc3)nn12	×10⁻⁶ cm/s	8.84

###

# System: Trypanosoma brucei
# Assay Procedure: DNDI: Inhibition of Human African Trypanosomiasis, Cross 22, in vitro
# Assay type: functional, organism-based
Some compounds, each annotated with its measured IC50.

Compound	Subject Of Test	IC50 (µg/mL)
CC1CC(NCc2coc(-c3ccc(Cl)cc3)n2)CC(C)(C)C1 (centres undefined)	Trypanosoma brucei	0.85
CCOc1ccc(-c2nc(CNC3CC(C)CC(C)(C)C3)co2)cc1 (centres undefined)	Trypanosoma brucei	0.79
CCOc1ccc(-c2nc(CNC3C[C@@H]4C[C@H]([C@H]3C)C4(C)C)co2)cc1 (some centres undefined)	Trypanosoma brucei	1.72
CCCCCC(C)NCc1coc(-c2ccc(Cl)cc2)n1 (centres undefined)	Trypanosoma brucei	1.54
CCCCOc1ccc(-c2nc(CNC3CC(C)CC(C)(C)C3)co2)cc1 (centres undefined)	Trypanosoma brucei	0.61
CCCCOc1ccc(-c2nc(CNC3[C@H]4C[C@@H]5C[C@@H](C[C@H]3C5)C4)co2)cc1 (some centres undefined)	Trypanosoma brucei	0.34
CCCCc1ccc(-c2nc(CN[C@@H]3C[C@@H]4C[C@H]([C@H]3C)C4(C)C)co2)cc1	Trypanosoma brucei	0.57
Clc1ccc(-c2nc(CNC3[C@H]4C[C@@H]5C[C@@H](C[C@H]3C5)C4)co2)cc1 (some centres undefined)	Trypanosoma brucei	2.29
CCCCCC(C)NCc1coc(-c2ccc(C(C)(C)C)cc2)n1 (centres undefined)	Trypanosoma brucei	0.49

###

# Assay Procedure: DNDI: Cytotoxicity against L929 mouse fibroblasts, CYTO-SP, 24 hour
# Assay type: toxicity, cell-based
# Settings: mouse, L929 mouse fibroblasts
Entries and their IC50 at 24 h values follow.
Property Measured: IC50 at 24 h

Compound	Test Result
CC(C)c1ccc(Oc2ncccc2/C(=N/O)NCc2ccco2)cc1	> 50 µg/mL
Cc1ccc(-c2nc(CNC[C@@H]3CC[C@H]4C[C@@H]3C4(C)C)co2)cc1	28.4 µg/mL
COc1ccc(Oc2ncccc2/C(=N/O)NCC(C)(C)C)cc1	> 50 µg/mL
Cc1ccccc1CN/C(=N\O)c1cccnc1Oc1c(F)cccc1F	> 50 µg/mL
C[C@@H]1[C@H]2C[C@@H](C[C@H]1NCc1coc(-c3sccc3Cl)n1)C2(C)C	> 50 µg/mL
C[C@@H]1[C@@H](N/C(=N\O)c2ccccc2-c2ccccc2)C[C@H]2C[C@@H]1C2(C)C	17 µg/mL
CC1CCC(N/C(=N\O)c2cccnc2Oc2ccccc2Cl)CC1 (stereo not drawn)	> 50 µg/mL
COc1cc(C)ccc1Oc1ncccc1C(=N)N	> 50 µg/mL
COc1ccc(/C(CO)=N/O)cc1	> 50 µg/mL
CCCCCC(C)NCc1coc(-c2ccccc2)n1 (stereo not drawn)	32 µg/mL
CCCCCC(C)NCc1coc(-c2ccc(OC(F)(F)F)cc2)n1 (stereo not drawn)	> 50 µg/mL
Cc1cc(C)cc(Oc2ccc(/C(=N/O)NCC3CC3)cn2)c1	> 50 µg/mL
O/N=C(\NC1CCCCC1)c1ccccc1F	> 50 µg/mL
CCOc1ccccc1CN/C(=N\O)c1cccnc1Oc1ccccc1SC	> 50 µg/mL
Cc1cccc(C)c1/C(=N/O)NC1CCCCC1	> 50 µg/mL
COc1ccccc1Oc1ncccc1C(=O)NC1CCCCC1	> 50 µg/mL
CCc1ccccc1Oc1ncccc1/C(N)=N\O	> 5 µg/mL
O/N=C(/NC1CCCCC1)c1cccnc1Oc1ccccc1F	> 50 µg/mL
COc1ccccc1Oc1ncccc1C#N	> 50 µg/mL
CC1CCC(C)N1/C(=N\O)c1ccc(Oc2ccc3ccccc3c2)nc1 (stereo not drawn)	> 50 µg/mL
CC1CC(N/C(=N\O)c2cccnc2Oc2ccc(F)c(Cl)c2)CC(C)(C)C1 (stereo not drawn)	28.2 µg/mL
CCOc1ccc(-c2nc(CN[C@]34C[C@H]5C[C@H](C[C@H](C5)C3)C4)co2)cc1	> 50 µg/mL
C=CCO/N=C/c1ccccc1-c1ccccc1	> 50 µg/mL
CCCC(CCC)NCc1coc(-c2ccc(OCC)cc2)n1	> 50 µg/mL
CCc1ccccc1/C(=N\O)NC1CCCCC1	> 50 µg/mL
N/C(=N/O)c1cccnc1Oc1ccccc1Br	> 50 µg/mL
Clc1ccc(-c2nc(CN3CCCCC3)co2)cc1	> 50 µg/mL
CCCCCOc1ccc(-c2nc(CNC(C)CCCCC)co2)cc1 (stereo not drawn)	32.4 µg/mL
C[C@H](NCc1coc(-c2ccc(Cl)cc2)n1)C1CCCCC1	> 50 µg/mL
O/N=C(/NC1CCCCC1)c1cccnc1Oc1ccccc1Cl	> 50 µg/mL
CN1CCCC1CCNCc1coc(-c2ccc(Br)cc2)n1 (stereo not drawn)	25.1 µg/mL
CCCCCOc1ccc(-c2nc(CNC[C@@H]3CC[C@H]4C[C@@H]3C4(C)C)co2)cc1	> 50 µg/mL
Cc1ccc(Oc2ncccc2/C(=N/O)NCC2CC2)c2c1CCC2	> 50 µg/mL
Clc1ccc(-c2nc(CNC3CCCCC3)co2)cc1	> 50 µg/mL
CCCCCC(C)NCc1ccc(-c2ccccc2)s1 (stereo not drawn)	23 µg/mL
O/N=C(\NC1CCCCC1)c1ccc(Br)cc1	38 µg/mL
CCN(CC)/C(=N\O)c1ccccc1-c1ccccc1	> 50 µg/mL
CC1CC(NCc2coc(-c3ccc(Br)cc3)n2)CC(C)(C)C1 (stereo not drawn)	> 50 µg/mL
COc1ccc(Oc2ncccc2/C(=N/O)NC2CCCCC2)cc1	> 50 µg/mL
CCCCCC(C)NCc1nc(-c2ccccc2)no1 (stereo not drawn)	50 µg/mL
CCOc1ccc(-c2nc(CNCc3ccccc3)co2)cc1	> 50 µg/mL
CCCCCC(C)NCc1coc(-c2cccc3ccccc23)n1 (stereo not drawn)	16 µg/mL
Clc1ccc(-c2nc(CNC3CCCCCC3)co2)cc1	26.6 µg/mL
CC1CCCCN1CCCNCc1coc(-c2ccc(Cl)cc2Cl)n1 (stereo not drawn)	42.2 µg/mL
CCc1ccc(Oc2ncccc2/C(=N/O)NCc2ccccc2C)cc1	> 50 µg/mL
Clc1ccc(-c2nc(CNC3CC4CCC3C4)co2)cc1 (stereo not drawn)	40.7 µg/mL
CCCCCC(C)NCc1coc(-c2cc(F)ccc2F)n1 (stereo not drawn)	36 µg/mL
CCOc1ccc(-c2nc(CNC3[C@H]4C[C@@H]5C[C@@H](C[C@H]3C5)C4)co2)cc1 (stereo partly drawn)	43.2 µg/mL
